Test: NCI Yeast Anticancer Drug Screen. Data for the rad52 strain (AID 147);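 further: 0% = growth of vehicle-treated control cultures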
Settings: S. cerevisiae rad52 mutant growth inhibition; at 3.7 µM
About 79,000 compounds went through this panel and 15% of them were active in at least one assay; those are over-represented in the sample as a whole. Calls of active or inactive are those of the source. No stated cut-off is given here; in the data, active means growth inhibition above about 70%; inactive means the rest.
Permitted responses: class 1 = active, class 0 = inactive

| compound | assigned-category |
| --- | --- |
| c1ccc(N=c2nc(N3CCOCC3)ss2)cc1 | class 0 |
| O=C1c2ccccc2C(=O)C(Cl)C1Cl (configuration not stated) | class 0 |

Turning now to a further record.
Hello, I am checking results. What call was entered for "CC1(C)N=C(N)N=C(N)N1c1cccc(N)c1.[Sn]" ?
class 0

---

Recorded growth inhibition values for a group of compounds are listed next.
Test: NCI Yeast Anticancer Drug Screen. Data for the mec2-1 strain (AID 157)
Settings: S. cerevisiae mec2-1 strain, at 33.0 µM, hits give high values
Procedure: Growth inhibition of yeast strains with defined genetic alterations is measured as a screen for potential anti-cancer activity. Selected strains with alterations in DNA damage repair or cell cycle control were exposed to compounds and growth inhibition was measured relative to vehicle treated controls. The strain used in this assay is mec2-1
This is part of a sample that, as a whole, favours compounds with a hit. Of some 79,000 tested, about 15% had one in any assay.
The reply should be a number in %, with the unit left off.

| compound | growth inhibition (%) |
| --- | --- |
| CCC1(O)C(=O)OCc2c1cc1n(c2=O)Cc2c-1nc1ccccc1c2OC (stereo not drawn) | 41 |
| COc1cccc2c1C(=O)c1c(O)c3c(c(O)c1C2=O)C[C@@](O)(C(C)=O)C[C@@H]3OC1CC(N)C(OC2CC(O)C(O)C(C)O2)C(C)O1 (stereo partly drawn) | -17 |
| O=[N+]([O-])c1oc2ccc3ccccc3c2c1CCO | 99 |
| CCCCN(CCCC)CC(C(C)=O)C(c1ccccc1)c1c(O)c2ccccc2oc1=O (stereo not drawn) | -1 |
| COC(=O)C(F)C(Br)C(=O)OC (stereo not drawn) | 98 |
| O=[N+]([O-])c1cc(S(=O)(=O)F)ccc1Cl | 95 |
| CSC(=Nc1ccccc1)N(c1ccccc1)c1nc(=[N+](C)C)ss1 | 97 |
| CCS(=O)(=O)[O][Sn]([CH2]C)([CH2]C)[O]S(=O)(=O)CC | 23 |

I would be grateful if you could share the reported growth inhibition for "Nc1nc(N)c(-c2ccc(Cl)c(Cl)c2)c(CP(Cl)(Cl)(Cl)Br)n1" .
38

I would be grateful if you could share the reported growth inhibition for "N#Cc1cc(N(CCCl)CCCl)c([N+](=O)[O-])cc1[N+](=O)[O-]" .
28

I would be grateful if you could share the reported growth inhibition for O=C(O)C1C2c3ccccc3C(c3ccccc32)C1C(=O)O (stereo not drawn) .
-2

I would be grateful if you could share the reported growth inhibition for "CN(CCc1ccc(Br)cc1)CCN1CCCCC1" .
74

I would be grateful if you could share the reported growth inhibition for "CC1(C)N=C(N)N=C(N)N1c1cccc(N)c1.[Sn]" .
15

I would be grateful if you could share the reported growth inhibition for "O=P(Oc1ccc(Cl)cc1)(Oc1ccc(Cl)cc1)N1CC1" .
-1

I would be grateful if you could share the reported growth inhibition for CC1=C(O)C(=O)C=C2C1=CC=C1[C@@]2(C)CCC2(C)[C@@H]3C[C@@H](C)C(=O)C[C@]3(C)CC[C@]12C (stereo partly drawn) .
98

I would be grateful if you could share the reported growth inhibition for C[N+]1(CCCl)CC[N+](C)(CCCl)CC1 (stereo not drawn) .
81

I would be grateful if you could share the reported growth inhibition for OC(c1ccc(Br)cc1)C(Cl)(Cl)Cl (stereo not drawn) .
92

I would be grateful if you could share the reported growth inhibition for "O=[N+]([O-])c1ccc(-n2nc3ccc4c(no[n+]4[O-])c3[n+]2[O-])c([N+](=O)[O-])c1" .
3

I would be grateful if you could share the reported growth inhibition for CCCCCCCCCCCCCCCCP(=O)(O)OCC(N)C(=O)O (stereo not drawn) .
-20

I would be grateful if you could share the reported growth inhibition for COC1C(O)C(C)OC(OC2C(Oc3cccc4c(O)c5c(=O)oc6ccc(C)c7c(=O)oc(c34)c5c67)OC(C)C(O)C2O)C1O (stereo not drawn) .
18

I would be grateful if you could share the reported growth inhibition for "Oc1cccc2cccnc12" .
99

I would be grateful if you could share the reported growth inhibition for CCOC(=O)C1C2c3ccccc3C(c3ccccc32)C1C(=O)OCC (stereo not drawn) .
6

I would be grateful if you could share the reported growth inhibition for "O=C(NNC(=O)OCC(Cl)(Cl)Cl)OCC(Cl)(Cl)Cl" .
4

---

Experiment: NCI Yeast Anticancer Drug Screen. Data for the CLN2oe strain (AID 163);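 further: 0% = growth of vehicle-only control cultures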
Details: S. cerevisiae CLN2oe strain, at 11.0 µM
About 79,000 compounds went through this panel and 15% of them were active in at least one assay; those are over-represented in the sample as a whole. Activity calls are given as the source filed them. Cut-off read from the data, not from the text of the source: active = growth inhibition above about 70%; inactive = the rest.
Permitted responses: active, inactive

Solved entries (count: 4):
| compound | assigned-category |
| --- | --- |
| OC1(c2ccccc2)CC2CCC(C1)N2CCCC(O)(c1ccccc1)c1ccccc1 (stereo not given) | inactive |
| CCC(=O)OC1CCn2c1nc1c2C(=O)C(C)=C(N2CC2)C1=O (stereo not given) | inactive |
| O=S(=O)(O)c1ccc(Cl)cc1.[Cd] | inactive |
| O=C(O)C1C2CCC(C2)C1c1ccccc1 (stereo not given) | inactive |

Hello, I am checking results. What call was entered for CC1=C[C@H]2O[C@@H]3C[C@H]4OC(=O)/C=C\C=C\C(C(C)O)OCC(O)C(C)CC(=O)OC[C@@]2(C[C@@H]1O)[C@]4(C)[C@@]31CO1 (stereo not given in full) ?
active

Hello, I am checking results. What call was entered for CCC1(O)C(=O)OCc2c1cc1n(c2=O)Cc2c-1nc1ccccc1c2OC (stereo not given) ?
inactive

Hello, I am checking results. What call was entered for NC1=NCC(c2ccc(Cl)cc2)O1 (stereo not given) ?
inactive

Hello, I am checking results. What call was entered for "CCCN(CCC)c1c([N+](=O)[O-])cc(S(N)(=O)=O)cc1[N+](=O)[O-]" ?
inactive

Hello, I am checking results. What call was entered for CCC1(OC(=O)CN)C(=O)OCc2c1cc1n(c2=O)Cc2cc3ccccc3nc2-1 (stereo not given) ?
inactive

Hello, I am checking results. What call was entered for C/C(=N\NC(N)=O)C(CN1CCOCC1)C(c1ccccc1)c1c(O)c2ccccc2oc1=O (stereo not given) ?
inactive

---

Test: NCI Yeast Anticancer Drug Screen. Data for the mlh1 rad18 strain (AID 175)
Settings: S. cerevisiae mlh1 rad18 strain growth inhibition; at 50.0 µM; hits give high values
Description: Growth inhibition of yeast strains with defined genetic alterations is measured as a screen for potential anti-cancer activity. Selected strains with alterations in DNA damage repair or cell cycle control were exposed to compounds and growth inhibition was measured relative to vehicle treated controls. The strain used in this assay is mlh1 rad18
Compounds without any hit were thinned out: in the full panel of roughly 79,000, 15% have a hit. The source made the active and inactive calls. No stated cut-off is given here; in the data, active means growth inhibition above about 70%; inactive means the rest.
measurement-name: growth inhibition

| molecule | growth inhibition |
| --- | --- |
| N#CC(=C=N)N=C(F)C(C#N)=C(C#N)C#N | 94.8% (active) |
| Cl[C](Cl)(Cl)[Hg][c]1ccccc1 | 91.5% (active) |
| O=C(c1ccccc1)C1C(c2ccccc2[N+](=O)[O-])N1C1CCCCC1 (stereo not given) | 96.2% (active) |

I would be grateful if you could share the reported growth inhibition for "CC[CH2][Sn]([CH2]CC)([CH2]CC)[CH2]CCBr" .
99.5% (active)

I would be grateful if you could share the reported growth inhibition for "CCOP(=O)(OCC)/C(C#N)=C/c1cccc(Cl)c1" .
89.3% (active)

I would be grateful if you could share the reported growth inhibition for O=C(O)C1C2c3ccccc3C(c3ccccc32)C1Br (stereo not given) .
14.1% (inactive)

I would be grateful if you could share the reported growth inhibition for CC/C(=C(/CC)c1ccc(OP(N)(=O)N(CCCl)CCCl)cc1)c1ccc(OP(N)(=O)N(CCCl)CCCl)cc1 (stereo not given) .
66.8% (inactive)

I would be grateful if you could share the reported growth inhibition for "COc1cc(C=Nc2cc(Br)c(OC)c(Br)c2)ccc1N(CCCl)CCCl" .
83.2% (active)

I would be grateful if you could share the reported growth inhibition for "O=[N+]([O-])[O-].O=[N+]([O-])[O-].[Au].[Au].c1ccc([P-]c2ccccc2)cc1.c1ccc([P-]c2ccccc2)cc1" .
86.7% (active)

I would be grateful if you could share the reported growth inhibition for "NCCc1ccc(OCc2ccccc2)c(OCc2ccccc2)c1" .
90.2% (active)

---

Experiment: NCI Yeast Anticancer Drug Screen. Data for the wt1 strain (AID 149);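 further: 0% = growth of vehicle-treated wt1 cultures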
Conditions: S. cerevisiae wt1 strain (SPY 50644) growth inhibition; at 1.2 µM; hits give high values
This is part of a sample that, as a whole, favours compounds with a hit. Of some 79,000 tested, about 15% had one in any assay.
measurement-name: growth inhibition (%)
The reply should be a number in %, with the unit left off.

| molecule | growth inhibition, % |
| --- | --- |
| COc1cccc2c1C(=O)c1c(O)c3c(c(O)c1C2=O)C[C@@](O)(C(C)=O)C[C@@H]3OC1CC(N)C(OC2CC(O)C(O)C(C)O2)C(C)O1 (stereo partly drawn) | -26 |
| C[N+](C)(C)CC1CCCC(C[N+](C)(C)C)C1=O (stereo not drawn) | -1 |

I would be grateful if you could share the reported growth inhibition for "CO[C@H](/C(C)=C/C=C/C(C)=C/c1coc(C)n1)[C@H](C)[C@H]1C[C@@H](O)[C@@]2(C)O[C@H]2/C=C/[C@@H](C)[C@@H]2C[C@@H](CC(=O)O2)C[C@H]2O[C@@H]2C(=O)O1" .
7

I would be grateful if you could share the reported growth inhibition for COC1C(O)C(C)OC(OC2C(Oc3cccc4c(O)c5c(=O)oc6ccc(C)c7c(=O)oc(c34)c5c67)OC(C)C(O)C2O)C1O (stereo not drawn) .
6

I would be grateful if you could share the reported growth inhibition for "c1c(N2CCOCC2)ssc1=[N+]1CCOCC1" .
-3

I would be grateful if you could share the reported growth inhibition for C[C@@]12CCC(=O)C=C1CC[C@H]1C2=CC[C@]2(C)C1CC[C@@]2(C)O (stereo partly drawn) .
-13

I would be grateful if you could share the reported growth inhibition for O=C1C2CC(Cl)C(SSC3CC4C(=O)N(SC(Cl)(Cl)C(Cl)Cl)C(=O)C4CC3Cl)CC2C(=O)N1SC(Cl)(Cl)C(Cl)Cl (stereo not drawn) .
14

I would be grateful if you could share the reported growth inhibition for "O=C(O)CCCOc1cc(Cl)c(Cl)cc1Cl" .
-1
